Origin of measurements: ChEMBL document CHEMBL1201862

Tested on: SF-539
protocol_text: NCI tumour cell line growth inhibition, 48 h
Calls of active or inactive are those of the source. No stated cut-off is given here; in the data, active = GI50 up to about 1.1 µM and inactive = higher. Square brackets hold non-standard residues; d marks the D form. Peptide text beside a SMILES is read from it.
readout_kind: GI50

Return reported GI50; argument: C=CCC1(OC(C)=O)C2OC(=O)C1(O)OCC2O (stereo not drawn)
> 100 µM (inactive)

Return reported GI50; argument: O=C([O-])Cc1ccccc1.[Na+] [SODIUM PHENYLACETATE]
> 2000 µM (inactive)

Return reported GI50; argument: COc1ccc(/C=C2\N=C(N3CCCC(CO)C3)NC2=O)cc1 (stereo not drawn)
> 100 µM (inactive)

Return reported GI50; argument: Cc1nc(N)c(-c2ccccc2)s1
70.8 µM (inactive)

Return reported GI50; argument: CC(C)C[C@H](NC(=O)[C@H](CC(C)C)NC(=O)[C@@H](Cc1c[nH]c2ccccc12)NC(=O)[C@H](Cc1ccccc1)NC(=O)[C@@H](Cc1c[nH]c2ccccc12)NC(=O)[C@H](CCC(N)=O)NC(=O)[C@@H](CCC(N)=O)NC(=O)[C@@H]1CCCN1C(=O)[C@@H](CCCCN)NC(=O)[C@H]1CCCN1C(=O)[C@H](N)CCCN=C(N)N)C(N)=O (H-[dR][dP][dK]P[dQ]Q[dW]F[dW]LL-NH2)
> 61.4 µM (inactive)

Return reported GI50; argument: C[Si](C)(C)[C@@]1([Se]c2ccccc2)CC[C@@H]1C(=O)c1ccccc1
62.7 µM (inactive)

Return reported GI50; argument: O=c1ccn(CC2(CO)CCCC2)c(=O)[nH]1
> 100 µM (inactive)

Return reported GI50; argument: Cc1c2cccc(Sc3ccccc3)c2c2c3c(cccc13)[S+](c1ccccc1)C2 (stereo not drawn)
2.63 µM (inactive)

Return reported GI50; argument: Cn1c2cccc3nnc4cccc(c4c32)n1C
> 100 µM (inactive)

Return reported GI50; argument: N#CC12CC(C=O)=C(N)C1(C#N)CC(C=O)=C2N (stereo not drawn)
81.8 µM (inactive)

Return reported GI50; argument: COC1CCON1C(=O)c1ccccc1 (stereo not drawn)
> 10 µM (inactive)

Return reported GI50; argument: N#CC(C#N)=C/C=C(\Sc1c(Cl)c(Cl)nc(Cl)c1Cl)c1ccc(Cl)cc1
19.4 µM (inactive)

Return reported GI50; argument: Cc1cc(C2CC(O)C(CO)O2)c(F)cc1F (stereo not drawn)
> 100 µM (inactive)

Return reported GI50; argument: C=C(C)C(=O)OC1CC2(C)OC2CC(OC(C)=O)/C(C)=C/C2OC(=O)C(=C)C21 (stereo not drawn)
2.82 µM (inactive)

Return reported GI50; argument: CC(=O)O[C@H]1CC[C@@]2(C)C(=CC[C@@H]3[C@@H]2CC[C@]2(C)C(=N/O)/C(=C/c4ccc([N+](=O)[O-])cc4)C[C@@H]32)C1
29.3 µM (inactive)

Return reported GI50; argument: CN(C)c1ccccc1CN1CCCN(Cc2ccccc2N(C)C)C1c1ccncc1
16.4 µM (inactive)

Return reported GI50; argument: CCOC(=O)c1cc(Sc2ccc(N)c(C(=O)OCC)c2)ccc1N
24.9 µM (inactive)

Return reported GI50; argument: C=CCN1C(=O)CC2[C@@H]3CCc4cc(O)ccc4C3CC[C@]2(C)C1=O (stereo partly drawn)
> 10 µM (inactive)
